target: the molecule itself; assay: AUC; sedimentation equilibrium, 20 °C, 25 mM Tris-HCl pH 8.0, 50 mM NaCl with and without 20 mM EDTA; 13, 33 and 50 μM protein; 25,000, 35,000 and 45,000 rpm; monomer-dimer model, dimer to monomers
pKd: −log10 of the molar value.
MEASUREMENT_KIND: pKd

Endpoint output: pKd of AYEdes (N-terminal His6 tag followed only by the 70 designed residues of AYEdesign) (other) KTIFVIVPTNEEQVAFLEALAKQDELNFDWQNPPTEPGQPVVILIPSDMVEWFLEMLKAKGIPFTVYVEE . Value?
~3.82
